Source listed as PubChem BioAssay.

targetDesc: NADPH oxidase 2 (Homo sapiens) (UniProt P04839)
Sequence (P04839 whole entry, looked up): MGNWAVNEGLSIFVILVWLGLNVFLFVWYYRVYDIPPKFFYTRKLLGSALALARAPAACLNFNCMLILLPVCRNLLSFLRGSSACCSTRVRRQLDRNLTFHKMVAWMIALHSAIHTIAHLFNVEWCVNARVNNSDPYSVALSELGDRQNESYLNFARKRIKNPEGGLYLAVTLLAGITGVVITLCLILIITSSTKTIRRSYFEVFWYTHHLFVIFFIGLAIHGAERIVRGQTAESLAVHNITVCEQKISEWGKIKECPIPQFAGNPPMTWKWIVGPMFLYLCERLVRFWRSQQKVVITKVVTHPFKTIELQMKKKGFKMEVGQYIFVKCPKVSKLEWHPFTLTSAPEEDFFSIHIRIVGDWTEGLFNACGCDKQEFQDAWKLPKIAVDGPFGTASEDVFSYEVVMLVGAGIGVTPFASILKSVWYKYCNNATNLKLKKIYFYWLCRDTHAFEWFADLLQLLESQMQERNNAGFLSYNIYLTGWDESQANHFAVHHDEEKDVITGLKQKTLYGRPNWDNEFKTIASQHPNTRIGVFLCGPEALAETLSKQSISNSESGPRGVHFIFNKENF
assay: NOX2-dependent H2O2 signal modulators, primary screen, NOX inhibitor project, cell-based, HEK293-NOX2, PMA-stimulated, Amplex Red fluorescence (AID 1159)
runConditions: 45 min, higher = more signal, called active from +8 up or from −8 down
Binary classification by z-score, with -2 as an inclusive lower bound for 1.0; all other cases are 0.0.

# compound, targetDesc, className
rows = [
    ("CCCC[C@@H](O)C1=C(COC)Cn2c(=O)n(-c3ccccc3)c(=O)n2[C@H]1CO", "NADPH oxidase 2 (Homo sapiens) (UniProt P04839)", 1.0),
    ("CN(C)CCCC[C@@H]1NC(=O)[C@H]2C[C@@H](C(=O)O)[C@@H](c3cccc(OCCO)c3)N2C1=O", "NADPH oxidase 2 (Homo sapiens) (UniProt P04839)", 0.0),
    ("C=CC[C@@]1(C(=O)N(C)C)N=C(c2ccc(OCCCO)cc2)O[C@@H]1c1ccccc1", "NADPH oxidase 2 (Homo sapiens) (UniProt P04839)", 1.0),
    ("C=CCC(OC(C)=O)[C@@H]1[C@@H](N(Cc2cc3ccccc3o2)C(=O)c2ccc(-c3ccccc3)cc2)c2cc(OCCCO)ccc2N1C(=O)c1ccc2ccccc2n1 (some centres not stated)", "NADPH oxidase 2 (Homo sapiens) (UniProt P04839)", 1.0),
    ("O=C1C2C=CC(C(O)c3cccc(O)c3)N(Nc3ccccc3F)C2C(=O)N1c1ccccc1 (configuration not stated)", "NADPH oxidase 2 (Homo sapiens) (UniProt P04839)", 0.0),
    ("C[C@@H](OCc1ccccc1)C1NC(=O)[C@@]23C(=O)N[C@@H](Cc4ccccc4)C2[C@H](C)[C@@]2(C)O[C@H]2C3/C=C/C/C=C\\CNC(=O)[C@H](Cc2ccccc2)NC1=O (some centres not stated)", "NADPH oxidase 2 (Homo sapiens) (UniProt P04839)", 1.0),
    ("COCCOC(=O)N1C(=O)[C@@]2(c3cc(C#CCCO)ccc31)[C@H](C(=O)N1CCc3cc(OC)c(OC)cc3C1)[C@H]1C(=O)O[C@H](c3ccccc3)[C@H](c3ccccc3)N1[C@@H]2c1ccccc1OCCO", "NADPH oxidase 2 (Homo sapiens) (UniProt P04839)", 1.0),
]

====

Tested on: XIP peptide (Xip251-270) binding
assay: small-molecule binders of XIP peptide, primary screen, biochemical, small-molecule microarray, fluorescence 635/667 nm, 0.1 µg/mL protein (AID 1182)
runConditions: fluorescent protein binding, 635 nm, higher = more signal, called active from +8 up or from −8 down

# molecule, composite z-score
rows = [
    ("C=CCOC(=O)[C@H]1[C@@H]2C(=O)O[C@@H](c3ccccc3)[C@@H](c3ccccc3)N2[C@@H](c2ccc(OCCOC(=O)[C@@H]3C[C@@H]4C(=O)N[C@@H](CC(C)C)C(=O)N4[C@@H]3c3ccc(O)cc3)cc2)[C@]12C(=O)Nc1ccc(I)cc12", 1.47),
    ("COc1cccc(OC)c1C(=O)O[C@H]1[C@@H]2OC(=O)[C@H](Cc3cccc(Br)c3)C/C=C/C[C@@H](Cc3cccc(Br)c3)C(=O)O[C@H]2[C@@H](OC)O[C@@H]1CO", 1.02),
    ("CCN(CC)c1ccc(N2CC=CC34O[C@@H]5C=CCOC(=O)[C@@H]5[C@H]3C(=O)N(CCCO)[C@@H]4C2=O)cc1 (stereo partly specified)", 0.309),
    ("COCCOC(=O)N1C(=O)[C@@]2(c3cc(C#CCNC(N)=O)ccc31)[C@H](C(=O)NC[C@H](O)c1ccccc1)[C@H]1C(=O)O[C@H](c3ccccc3)[C@H](c3ccccc3)N1[C@@H]2c1ccc(OCCO)cc1", 0.561),
    ("CC(C)C(=C=CC[C@@H](O)c1ccc(OCCO)cc1)CCO", 0.308),
    ("CCCCC(=C=CC[C@@H](O)c1cccc(OCCO)c1)C[C@@H](O)COCc1ccccc1", -0.0344),
]
